# Tested on: NCI-H23
# protocol-notes: NCI tumour cell line growth inhibition, 48 h
Calls of active or inactive are those of the source. Cut-off read from the data, not from the text of the source: active = GI50 up to about 1.1 µM and inactive = higher.
Exercise: state measured GI50 for each of the compounds provided.

compound	measurement-target	value-type	test-result
Brc1ccc(N2C[N+](c3ccc(Br)cc3)=NC(c3ccccc3)=N2)cc1	NCI-H23	GI50	16.1 µM (inactive)
NC(=O)SCC(=O)Nc1ccc2cccc3c2c1CC3	NCI-H23	GI50	23.7 µM (inactive)
Oc1ccc(Cl)cc1/C=N/c1cnc2ccccc2c1	NCI-H23	GI50	33.9 µM (inactive)
c1ccc(/C(=N/Nc2ccccn2)c2ncccn2)cc1	NCI-H23	GI50	1.74 µM (inactive)
COC1(OC)CCCCC2c3cccc(OC(C)=O)c3C21OC(C)=O (centres undefined)	NCI-H23	GI50	> 100 µM (inactive)
Cc1ccc([N+](=O)[O-])cc1S(=O)(=O)Nc1ccc(C(=O)/C=C/c2cccs2)cc1	NCI-H23	GI50	20.2 µM (inactive)

Look at each compound and report its GI50.
1. C=CC(=C)CCC(Br)C(C)(C)Cl (centres undefined)
2. OCC(O)C(Cl)CCl (centres undefined)
3. C=C1[C@@H](OC(C)=O)/C=C/C2C3C(=O)[C@@](C)(OC(C)=O)[C@H]([C@H](OC(C)=O)[C@]4(O)[C@@H](C)C(=O)O[C@H]4[C@H]1Cl)[C@@]23C (some centres undefined)
4. NS(=O)(=O)c1c(O)c2ccccc2oc1=O
5. COc1ccccc1NC(=O)C1=C(C)NC(C)=C(C(=O)Nc2ccccc2OC)C1c1ccccc1OC

A)
1. > 100 µM (inactive)
2. > 100 µM (inactive)
3. > 100 µM (inactive)
4. > 100 µM (inactive)
5. > 100 µM (inactive)

----------
# System: A549
# protocol-notes: NCI tumour cell line growth inhibition, 48 h
Active and inactive are the calls of the source. Rule as the data show it: active = GI50 up to about 1.1 µM and inactive = higher.
Would you mind telling me the reported GI50 of each entry?

Sample records with GI50:
compound	measurement-target	GI50
C/C(=N\N=C(/[SeH])N1CC2CCC(CC2)C1)c1ccccn1	A549	0.0614 µM (active)
CN1C(=O)C(O)CC1c1cccc(F)c1 (configuration not stated)	A549	> 100 µM (inactive)
CC(/C(=N\Nc1ccccc1)c1ccc(O)cc1)C1C(=O)Oc2ccccc21 (configuration not stated)	A549	> 100 µM (inactive)
CN1CCN(c2nc3ccccc3nc2C(=O)c2ccc(Cl)cc2)CC1	A549	54.2 µM (inactive)
COc1ccc(OC)c(NC2=NCCO2)c1	A549	> 100 µM (inactive)
COc1ccc(-c2cc(-c3ccc(C)cc3)n(C3OC(COC(C)=O)C(OC(C)=O)C(OC(C)=O)C3OC(C)=O)c(=S)c2C#N)cc1 (configuration not stated)	A549	> 100 µM (inactive)
NS(=O)(=O)c1ccc(/N=N/c2nc3nc(O)nc(O)c3[nH]2)cc1	A549	> 100 µM (inactive)
CC1=NN(C(=O)c2ccc(Cl)cc2)C(=O)/C1=C/c1ccccc1O	A549	> 100 µM (inactive)

Answer for every listed entry: what is its GI50? The entries follow.
1. C=C(Br)CNCC(=C)Br
2. CO[C@]12CC(=O)C3(C(C[C@H]4CC5CC=C6C[C@@H](OC(C)=O)CC[C@]6(OC(C)=O)C5C[C@@]43C)C1)C1C[C@H]3[C@@H]4CC=C5C[C@@H](OC(C)=O)CC[C@]5(OC(C)=O)[C@H]4CC[C@]3(C)C12 (some centres not stated)

A)
> 100 µM (inactive)
21.9 µM (inactive)

List the reported GI50 of each compound below.
1. O=C(O)CSc1nnc(COc2ccccc2)n1-c1ccccc1
2. NC(=O)C(=Cn1c(=S)[nH]c2ccc([N+](=O)[O-])cc21)C(N)=O
3. O=C1CC(c2ccc(Cl)cc2)=Nc2ccccc2N1
4. C1CCNCC1.CN(C)c1ccc(/C=C2/NC(=S)NC2=O)cc1
5. O=C1CC(n2ccnc2)c2c(Cl)sc(Cl)c21 (configuration not stated)
6. NC(=S)N/N=C1\CCCC\C1=C/c1ccccc1
7. CCOC(=O)Cc1ccc(Nc2nc3cc(C(F)(F)F)ccc3nc2C(=O)OCC)cc1

A)
1. > 100 µM (inactive)
2. > 100 µM (inactive)
3. > 100 µM (inactive)
4. 46.8 µM (inactive)
5. 24.5 µM (inactive)
6. > 100 µM (inactive)
7. > 100 µM (inactive)

Return reported GI50 values for all items listed beneath this line.
1. CCN(CC)c1ccc2cc(C(=O)Nc3ccccc3OC)c(=N)oc2c1
2. Cc1cc(C)[n+](CCOc2ccc(/C(=C(/Cl)c3ccccc3)c3ccccc3)cc2)c(C)c1.[O-][Cl+3]([O-])([O-])[O-]
3. COc1ccc2c(C(=O)c3cn(CCN4CCOCC4)c4ccccc34)cccc2c1
4. CN1C=C(C(N)=O)C2CC(O)[C@@](NC(=O)CS(N)(=O)=O)(C(=O)O)C2C1 (some centres not stated)
5. Cc1ccc(-c2nc3ccccc3c(=O)n2NC2OC(CO)C(O)C(O)C2O)cc1 (configuration not stated)

A)
1. 21.8 µM (inactive)
2. 1.55 µM (inactive)
3. 6.76 µM (inactive)
4. 3.25 µM (inactive)
5. > 100 µM (inactive)
